Test system: Calf thymus DNA
Test: Binding affinity to calf thymus DNA assessed as DNA CD band at compound over DNA molar ratio of > 0.3 by circular dichroism titration
Type: nucleic-acid assay
Details: Bos taurus
Activity calls are given as the source filed them. No cut-off for these calls is given here.
Assay endpoint: Activity

Example cases with answers are listed next.
| Structure smiles string | Result |
| --- | --- |
| N=C(NC1CCCC1)c1ccc(-c2sc(-c3ccc(C(=N)NC4CCCC4)cc3)c3c2OCCO3)cc1 | Active |
| N=C(N)c1ccc(-c2sc(-c3ccc(C(=N)N)cc3)c3c2OCCO3)cc1 | Active |
| c1cc(-c2sc(-c3ccc(C4=NCCCN4)cc3)c3c2OCCO3)ccc1C1=NCCCN1 | Active |
| CC(C)NC(=N)c1ccc(-c2sc(-c3ccc(C(=N)NC(C)C)cc3)c3c2OCCO3)cc1 | Active |

Which Activity is listed for `CC(C)CNC(=N)c1ccc(-c2sc(-c3ccc(C(=N)NCC(C)C)cc3)c3c2OCCO3)cc1` ?
Active

====

Test system: Calf thymus DNA
Assay: Binding affinity to calf thymus DNA assessed as melting temperature at compound over DNA molar ratio of 0.3 at pH 7 by thermal denaturation assay
Format: nucleic-acid assay
Settings: Bos taurus
Give ΔTm for every item shown.
Please reply with the bare figure in °C and do not write the unit itself.

Which ΔTm is listed for `N=C(Nc1ccccc1)c1sc(C(=N)Nc2ccccc2)c2c1OCCO2` ?
0

Which ΔTm is listed for `CC(C)CNC(=N)c1ccc(-c2sc(-c3ccc(C(=N)NCC(C)C)cc3)c3c2OCCO3)cc1` ?
15

Which ΔTm is listed for `CC(C)NC(=N)c1ccc(-c2sc(-c3ccc(C(=N)NC(C)C)cc3)c3c2OCCO3)cc1` ?
12.3

====

Give ΔTm for every item shown.
System: Nucleic Acid
Test: Binding affinity to polu A-poly U assessed as melting temperature at compound over DNA molar ratio of 0.3 at pH 7 by thermal denaturation assay
Type: nucleic-acid assay
Don't forget the unit after the number, please.

Which ΔTm is listed for `N=C(Nc1ccccc1)c1sc(C(=N)Nc2ccccc2)c2c1OCCO2` ?
0 °C

Which ΔTm is listed for `N=C(NC1CCCC1)c1ccc(-c2sc(-c3ccc(C(=N)NC4CCCC4)cc3)c3c2OCCO3)cc1` ?
1.4 °C

Which ΔTm is listed for `Cl.Cl.c1cc(-c2sc(-c3ccc(C4=NCCN4)cc3)c3c2OCCO3)ccc1C1=NCCN1` ?
17 °C

Which ΔTm is listed for `CC(C)NC(=N)c1ccc(-c2sc(-c3ccc(C(=N)NC(C)C)cc3)c3c2OCCO3)cc1` ?
5.8 °C

Which ΔTm is listed for `c1cc(-c2sc(-c3ccc(C4=NCCCN4)cc3)c3c2OCCO3)ccc1C1=NCCCN1` ?
8.2 °C

Which ΔTm is listed for `CC(C)CNC(=N)c1ccc(-c2sc(-c3ccc(C(=N)NCC(C)C)cc3)c3c2OCCO3)cc1` ?
5.2 °C

Which ΔTm is listed for `N=C(N)c1ccc(-c2sc(-c3ccc(C(=N)N)cc3)c3c2OCCO3)cc1` ?
12.6 °C

====

Give GI50 for every item shown.
Tested on: NCI-H358
Assay: Cytotoxicity against human NCI-H358 cells after 72 hrs by MTT assay
Format: functional
Conditions: NCI-H358, 72 h
Please reply with the bare figure in µM and do not write the unit itself.

Which GI50 is listed for `CN1CCN(c2ccc3[nH]c(-c4ccc5[nH]c(-c6ccc(O)cc6)nc5c4)nc3c2)CC1` ?
91.7

Which GI50 is listed for `N=C(N)c1ccc(-c2sc(-c3ccc(C(=N)N)cc3)c3c2OCCO3)cc1` ?
33

Which GI50 is listed for `N=C(NC1CCCC1)c1ccc(-c2sc(-c3ccc(C(=N)NC4CCCC4)cc3)c3c2OCCO3)cc1` ?
62.2

Which GI50 is listed for `N=C(Nc1ccccc1)c1sc(C(=N)Nc2ccccc2)c2c1OCCO2` ?
112

Which GI50 is listed for `CC(C)NC(=N)c1ccc(-c2sc(-c3ccc(C(=N)NC(C)C)cc3)c3c2OCCO3)cc1` ?
113

Which GI50 is listed for `c1cc(-c2sc(-c3ccc(C4=NCCCN4)cc3)c3c2OCCO3)ccc1C1=NCCCN1` ?
98.7

Which GI50 is listed for `Cl.Cl.c1cc(-c2sc(-c3ccc(C4=NCCN4)cc3)c3c2OCCO3)ccc1C1=NCCN1` ?
4.1

Which GI50 is listed for `CC(C)CNC(=N)c1ccc(-c2sc(-c3ccc(C(=N)NCC(C)C)cc3)c3c2OCCO3)cc1` ?
73.3

====

Test system: Caco-2
Experiment: Cytotoxicity against human Caco2 cells after 72 hrs by MTT assay
Assay type: functional
Conditions: Caco-2, 72 h
Under this convention, true denotes GI50 strictly below 80 µM and false denotes GI50 at or above 80 µM.

Is GI50 strictly under 80 µM for the entry `N=C(NC1CCCC1)c1ccc(-c2sc(-c3ccc(C(=N)NC4CCCC4)cc3)c3c2OCCO3)cc1` ?
true

Is GI50 strictly under 80 µM for the entry CN1CCN(c2ccc3[nH]c(-c4ccc5[nH]c(-c6ccc(O)cc6)nc5c4)nc3c2)CC1 [HOECHST 33258] ?
false

Is GI50 strictly under 80 µM for the entry `c1cc(-c2sc(-c3ccc(C4=NCCCN4)cc3)c3c2OCCO3)ccc1C1=NCCCN1` ?
false

Is GI50 strictly under 80 µM for the entry `CC(C)NC(=N)c1ccc(-c2sc(-c3ccc(C(=N)NC(C)C)cc3)c3c2OCCO3)cc1` ?
true

Is GI50 strictly under 80 µM for the entry `N=C(Nc1ccccc1)c1sc(C(=N)Nc2ccccc2)c2c1OCCO2` ?
false

Is GI50 strictly under 80 µM for the entry `N=C(N)c1ccc(-c2sc(-c3ccc(C(=N)N)cc3)c3c2OCCO3)cc1` ?
true

Is GI50 strictly under 80 µM for the entry `CC(C)CNC(=N)c1ccc(-c2sc(-c3ccc(C(=N)NCC(C)C)cc3)c3c2OCCO3)cc1` ?
true

Is GI50 strictly under 80 µM for the entry `Cl.Cl.c1cc(-c2sc(-c3ccc(C4=NCCN4)cc3)c3c2OCCO3)ccc1C1=NCCN1` ?
true

====

System: Calf thymus DNA
Assay: Binding affinity to calf thymus DNA assessed as melting temperature at compound over DNA molar ratio of 0.2 at pH 7 by thermal denaturation assay
Type: nucleic-acid assay
Conditions: Bos taurus
Assay endpoint: ΔTm (°C)
Please reply with the bare figure in °C and do not write the unit itself.

Which ΔTm is listed for `Cl.Cl.c1cc(-c2sc(-c3ccc(C4=NCCN4)cc3)c3c2OCCO3)ccc1C1=NCCN1` ?
14.3

Which ΔTm is listed for `CC(C)CNC(=N)c1ccc(-c2sc(-c3ccc(C(=N)NCC(C)C)cc3)c3c2OCCO3)cc1` ?
9

Which ΔTm is listed for `N=C(NC1CCCC1)c1ccc(-c2sc(-c3ccc(C(=N)NC4CCCC4)cc3)c3c2OCCO3)cc1` ?
15.2

Which ΔTm is listed for `CC(C)NC(=N)c1ccc(-c2sc(-c3ccc(C(=N)NC(C)C)cc3)c3c2OCCO3)cc1` ?
11.1

====

Give GI50 for every item shown.
Test system: HeLa
Experiment: Cytotoxicity against human HeLa cells after 72 hrs by MTT assay
Format: functional
Please reply with the bare figure in µM and do not write the unit itself.

Which GI50 is listed for `Cl.Cl.c1cc(-c2sc(-c3ccc(C4=NCCN4)cc3)c3c2OCCO3)ccc1C1=NCCN1` ?
1.5

Which GI50 is listed for `CC(C)NC(=N)c1ccc(-c2sc(-c3ccc(C(=N)NC(C)C)cc3)c3c2OCCO3)cc1` ?
72.3

Which GI50 is listed for `N=C(N)c1ccc(-c2sc(-c3ccc(C(=N)N)cc3)c3c2OCCO3)cc1` ?
32.3

Which GI50 is listed for CN1CCN(c2ccc3[nH]c(-c4ccc5[nH]c(-c6ccc(O)cc6)nc5c4)nc3c2)CC1 [HOECHST 33258] ?
116

Which GI50 is listed for `CC(C)CNC(=N)c1ccc(-c2sc(-c3ccc(C(=N)NCC(C)C)cc3)c3c2OCCO3)cc1` ?
18.8

Which GI50 is listed for `N=C(NC1CCCC1)c1ccc(-c2sc(-c3ccc(C(=N)NC4CCCC4)cc3)c3c2OCCO3)cc1` ?
26.7

Which GI50 is listed for `N=C(Nc1ccccc1)c1sc(C(=N)Nc2ccccc2)c2c1OCCO2` ?
138

Which GI50 is listed for `c1cc(-c2sc(-c3ccc(C4=NCCCN4)cc3)c3c2OCCO3)ccc1C1=NCCCN1` ?
97.5

====

Tested on: Calf thymus DNA
Experiment: Binding affinity to calf thymus DNA assessed as melting temperature at compound over DNA molar ratio of 0.1 at pH 7 by thermal denaturation assay
Format: nucleic-acid assay
Details: Bos taurus
Give ΔTm for every item shown.
Please reply with the bare figure in °C and do not write the unit itself.

Please tell me: ΔTm of `N=C(N)c1ccc(-c2sc(-c3ccc(C(=N)N)cc3)c3c2OCCO3)cc1` , system Calf thymus DNA?
12.2

Please tell me: ΔTm of `N=C(NC1CCCC1)c1ccc(-c2sc(-c3ccc(C(=N)NC4CCCC4)cc3)c3c2OCCO3)cc1` , system Calf thymus DNA?
12.3

Please tell me: ΔTm of `CC(C)CNC(=N)c1ccc(-c2sc(-c3ccc(C(=N)NCC(C)C)cc3)c3c2OCCO3)cc1` , system Calf thymus DNA?
9

Please tell me: ΔTm of `Cl.Cl.c1cc(-c2sc(-c3ccc(C4=NCCN4)cc3)c3c2OCCO3)ccc1C1=NCCN1` , system Calf thymus DNA?
10.8

Please tell me: ΔTm of `CC(C)NC(=N)c1ccc(-c2sc(-c3ccc(C(=N)NC(C)C)cc3)c3c2OCCO3)cc1` , system Calf thymus DNA?
8.4

Please tell me: ΔTm of `c1cc(-c2sc(-c3ccc(C4=NCCCN4)cc3)c3c2OCCO3)ccc1C1=NCCCN1` , system Calf thymus DNA?
11.8
